# measuredTarget: T1, Human CD19-his protein (human, UniProt P15391 20-291)
# T1 construct: bought protein; also called recombinant human CD19-His; CD19 full-length protein; not shown: His tag
# T1 sequence (looked up): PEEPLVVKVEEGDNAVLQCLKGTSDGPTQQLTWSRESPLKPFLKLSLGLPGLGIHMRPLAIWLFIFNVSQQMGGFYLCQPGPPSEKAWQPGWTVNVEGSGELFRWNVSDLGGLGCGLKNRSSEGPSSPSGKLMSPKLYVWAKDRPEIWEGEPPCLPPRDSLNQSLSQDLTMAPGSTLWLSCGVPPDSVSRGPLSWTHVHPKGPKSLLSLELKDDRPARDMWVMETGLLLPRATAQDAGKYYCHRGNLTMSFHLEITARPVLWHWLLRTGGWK
# testName: ELISA, coated human CD19-His
measurementName: OD450 at 10 nM (OD450)
Respond numerically; units are OD450 and should not be typed.

Q: Fill in the blank: the reported OD450 at 10 nM of F3.121.4-L1H2 (antibody, mouse IgG1, kappa, V domains shown, humanized antibody of F3.121.4, VL1+VH2, murine IgG1 constant regions) VH: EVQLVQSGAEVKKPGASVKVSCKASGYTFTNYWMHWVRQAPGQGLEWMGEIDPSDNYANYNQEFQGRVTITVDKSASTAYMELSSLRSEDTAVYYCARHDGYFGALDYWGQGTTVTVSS VL: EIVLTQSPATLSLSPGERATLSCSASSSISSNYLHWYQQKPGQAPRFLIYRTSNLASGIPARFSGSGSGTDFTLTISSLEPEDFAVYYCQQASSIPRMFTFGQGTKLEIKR is ____.
Ans: 2.58
